Tested on: Liver microsome
Experiment: Intrinsic clearance in human pooled liver microsomes at 1 uM by LC/MS analysis
Type: ADME
OUTCOME_MEASURE: CLH (L/min)

Use the examples below as a reference point.
# COMPOUND, TARGET_SYSTEM, OUTCOME_MEASURE, UNITS_OF_MEASURE, QUANTITATIVE_RESULT
data = [
    ("O=C1N(C2CC2)CCN1[C@H]1CC[C@@H](C(=O)Nc2ccc(-c3cc(F)cc(F)c3)cn2)CC1", "Liver microsome", "CLH", "L/min", 1),
    ("C[C@@H]1CN([C@H]2CC[C@@H](C(=O)Nc3ccc(-c4cc(F)cc(F)c4)cn3)CC2)C(=O)O1", "Liver microsome", "CLH", "L/min", 0.9),
]

I = CC(C)(C)C1CN([C@H]2CC[C@@H](C(=O)Nc3ccc(-c4cc(F)cc(F)c4)cn3)CC2)C(=O)O1 (mixture of isomers)
II = O=C1CCCN1[C@H]1CC[C@@H](C(=O)Nc2ccc(-c3cc(F)cc(F)c3)cn2)CC1
III = O=C1CCCN1[C@H]1CC[C@@H](C(=O)Nc2ncc(-c3cc(F)cc(F)c3)cn2)CC1
IV = CCN1CCN([C@H]2CC[C@@H](C(=O)Nc3ccc(-c4cc(F)cc(F)c4)cn3)CC2)C1=O
V = O=C1OCCN1[C@H]1CC[C@@H](C(=O)Nc2ccc(-c3cc(F)cc(F)c3)cn2)CC1
# input Reorder the items by CLH, least to greatest. Quick reminder: the answer is the labels in the order asked.
# output V, III, II, IV, I

I = O=C1NCCN1[C@H]1CC[C@@H](C(=O)Nc2ccc(-c3cc(F)cc(F)c3)cn2)CC1
II = C[C@H]1CN([C@H]2CC[C@@H](C(=O)Nc3ccc(-c4cc(F)cc(F)c4)cn3)CC2)C(=O)O1
# input Pick one, I or II : lowest reported CLH. State the label of the item chosen.
# output II

* * *

Experiment: Half life in Sprague-Dawley rat at 1 mg/kg, iv and 2 mg/kg, po by LC/MS analysis
Format: ADME, organism-based
Conditions: in vivo
OUTCOME_MEASURE: half-life (h)

# SAMPLE_SMILES, half-life (h)
records = [
    ("CN1CCN([C@H]2CC[C@@H](C(=O)Nc3ccc(-c4cc(F)cc(F)c4)cn3)CC2)C1=O", 3.5),
]

P = O=C1CCCN1[C@H]1CC[C@@H](C(=O)Nc2ccc(-c3cc(F)cc(F)c3)cn2)CC1
Q = O=C1OCCN1[C@H]1CC[C@@H](C(=O)Nc2ccc(-c3cc(F)cc(F)c3)cn2)CC1
# input Kindly identify which of P and Q has the larger recorded half-life value. State the label of the item chosen.
# output P

* * *

Assay: Ratio of drug level in brain to plasma in femoral artery cannulated Sprague-Dawley rat at 10 mg/kg, po after 1 hr by LC/MS/MS analysis
Assay type: ADME, organism-based
Design: dose 10 mg/kg, route oral
Settings: read-out: BPR
OUTCOME_MEASURE: Kp at 1 h

Use the examples below as a reference point.
# SAMPLE_SMILES, QUANTITATIVE_RESULT
records = [
    ("O=C1CCCN1[C@H]1CC[C@@H](C(=O)Nc2ccc(-c3cc(F)cc(F)c3)cn2)CC1", 1),
    ("O=C1OCCN1[C@H]1CC[C@@H](C(=O)Nc2ccc(-c3cc(F)cc(F)c3)cn2)CC1", 0.5),
]

a = O=C1CCCN1[C@H]1CC[C@@H](C(=O)Nc2ncc(-c3cc(F)cc(F)c3)cn2)CC1
b = O=C1NCCN1[C@H]1CC[C@@H](C(=O)Nc2ccc(-c3cc(F)cc(F)c3)cn2)CC1
c = CN1CCN([C@H]2CC[C@@H](C(=O)Nc3ccc(-c4cc(F)cc(F)c4)cn3)CC2)C1=O
# input Please list these compounds in decreasing order of Kp at 1 h. Quick reminder: the answer is the labels in the order asked.
# output c, b, a
